MEASURED_TARGET: BRN2 (Homo sapiens)
Sequence (P20265 whole entry): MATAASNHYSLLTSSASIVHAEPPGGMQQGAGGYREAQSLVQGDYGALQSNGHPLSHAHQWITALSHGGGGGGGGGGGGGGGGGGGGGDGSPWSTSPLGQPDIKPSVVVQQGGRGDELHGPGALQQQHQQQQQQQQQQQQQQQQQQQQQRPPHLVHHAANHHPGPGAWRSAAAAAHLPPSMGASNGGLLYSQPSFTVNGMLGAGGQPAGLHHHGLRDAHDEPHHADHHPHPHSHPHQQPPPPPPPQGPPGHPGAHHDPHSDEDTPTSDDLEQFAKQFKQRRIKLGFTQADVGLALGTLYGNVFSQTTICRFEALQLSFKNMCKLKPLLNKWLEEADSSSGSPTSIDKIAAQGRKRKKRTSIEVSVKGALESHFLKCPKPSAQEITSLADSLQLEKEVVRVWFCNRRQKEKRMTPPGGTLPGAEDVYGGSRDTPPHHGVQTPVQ
TEST_PROTOCOL: cell-based
PROTOCOL_CONDITIONS: read-out: % BRN2 Inhibition (10 μM), 10 μM compound, 24 hours, 42D^ENZR cells stably expressing BRN2-luciferase reporter; negative = activation
Description: Decreased expression of luciferase protein is validated via western blot to confirm downregulation and avoid false positive molecules that inhibit luciferase protein activity and not BRN2-drive luciferase expression. […] In TABLES 1 and 2, when a single value is mentioned in columns Met Stab % and T½, it refers to compound's stability in MLM and when two values are given they represent HLM/MLM. […] Where data has yet to be calculated the notation “nc” is used.
EXPERIMENTAL_ENDPOINT: inhibition at 10 µM (%)
Write the value in % as a bare number.

Please report the recorded inhibition at 10 µM for FC(F)(F)c1cccc2oc(-c3csc(-c4ccco4)n3)cc12 .
-81

Please report the recorded inhibition at 10 µM for FC(F)(F)c1ccc2nc(-c3csc(C4=CCOCC4)n3)oc2c1 .
11.3

Please report the recorded inhibition at 10 µM for Cn1c(-c2ccc(N3CC4CC3CO4)o2)nc2ccccc21 (centres unmarked) .
-26.6

Please report the recorded inhibition at 10 µM for Cn1c(-c2ccc(-c3ccc(F)cc3F)o2)nc2ccc(C(F)(F)F)cc21 .
-8

Please report the recorded inhibition at 10 µM for FC(F)(F)c1ccc2cc(-c3coc(-c4ccco4)n3)oc2c1 .
88.9
